test system: DeltatarO mutant; experiment: S. aureus survival, RN4220 and DeltatarO strains – OD600, teichoic acid synthesis inhibitors, primary screen (AID 463173); conditions: S. aureus RN4220 wild type/DeltatarO growth, OD600, 18 h, stronger effect = lower value, screened at 18.75 µg/mL (by protocol)
Among all 52,000 compounds or so, about 4,300 (8.3%) were called active. The sample holds actives, similar compounds and a random draw of the others, so the mix is not that of the screen.
Kindly supply the reported survival values for the records listed here.
One number for each entry, in %.

Working through the 5 compounds below one at a time, give survival for each.
1. Cc1cccc(S(=O)Cc2ccc(C(=O)NC3CCCCCC3)o2)c1 (stereo not given)
2. COc1ccc(-n2nc(C(=O)N3CCN(c4cccc(C)c4)C(C)C3)c3c4ccccc4n(C)c3c2=O)cc1 (stereo not given)
3. CCc1nc2nc(C)cc(Nc3ccc(Br)cc3F)n2n1
4. COc1cc(-c2nc(Cn3nnc(C(=O)Nc4ccccc4C)c3C)c(C)o2)cc(OC)c1OC
5. CCOCCCNC(=O)c1ccc2c(c1)NC(=O)C(CS(=O)(=O)Cc1ccc(F)cc1Cl)N2 (stereo not given)

Response:
1: 81; 2: 76; 3: 128; 4: 58; 5: 88
